B1: TPR t1 (parent)
chain: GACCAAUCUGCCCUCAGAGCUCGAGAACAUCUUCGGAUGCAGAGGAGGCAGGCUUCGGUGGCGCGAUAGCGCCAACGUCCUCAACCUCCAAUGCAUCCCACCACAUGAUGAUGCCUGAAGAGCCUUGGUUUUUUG

# Variants of: B1
# procedure.summary: polymerase ribozyme fitness, log enrichment relative to wild type (log ratio); higher = more active; in vitro selection for triplet polymerase activity
Met means recorded polymerase ribozyme fitness (log ratio) is -5 or above; Not met means it is below -5.

>  <biopolymer.sequence>
GACCAAUCUGCCAUCAGAGCUCGAGAACAUCUUCGGAUGCGGAGGAGGCAGGCUUCGGUGGCACGAUAGCGCCAACGUCCUCAACCUCCAAUGCAUCCCACCACAUGAUGAUGCCUGAAGAGCCUUGGUUUCUUG [C13A A41G G63A U132C]

>  <discrete.label>
Met

$$$$

Form field: polymerase ribozyme fitness (log ratio) at least -5? Entry: GACCAAUCUGCCUUCAAAGCUCGAGAACAUCUUCGGAUGCAGAGGAGGCAGGCUUCGGUGGCGCGAUAGCGCCAACGUCCUCAACCUCCAAUGCAUCCCACCACAUGAUGAUGCCUGAAGAGACUUGGUUUUUUG [C13U G17A C123A]
Met

Form field: polymerase ribozyme fitness (log ratio) at least -5? Entry: GACCAAUCUGCCAUCAGAGCUCGAGAACAUCUUCGAAUGCAGAGGAGGCAGUCUUCGGUGGCGCGAUAGCGCCAACGUCCUCAACCUCCAAUGCAUUCCACCACAUGAUGCUGCCUGAAGAGCCUUGGUUUUUUG [C13A G36A G52U C97U A111C]
Met

Form field: polymerase ribozyme fitness (log ratio) at least -5? Entry: GACCAAUAUGCCCUCAGAGCUCGAGAACAUCUUCAGAUGCAGAGGAGGCAGGCUUCGGUGACGCGAUAGCGCCAACGUCCUCAACCUCUAAUGCUUCCCACCACAAGAUGAUGCCUGAAGAGCCUUGGUUUUUUG [C8A G35A G61A C89U A95U U106A]
Not met

Form field: polymerase ribozyme fitness (log ratio) at least -5? Entry: GACCAAUCUGCCCUCAGAGCUCGAGAACAUCUUCGGUUGCAGAGGAGGCAGGCUUCGGUGGCCCGAUAUCGCCAACGUCCUCAACCUCCAAUGCAUUCUACCACAUGAUUAUGCCUGAAGAGCCUUGGUUUUUUG [A37U G63C G69U C97U C99U G110U]
Not met

Form field: polymerase ribozyme fitness (log ratio) at least -5? Entry: GACCAAUCUGCCCUCAGAGCUCGAGAACAUCUUCGGAUGCAGAGGUGGCAGGCUUCGGUGGCGUGAUAGCGCCAACGUCCGCAACCUCCAAUGCAUCCCACCACAUGAUGAUGCCUGAAGAGCCUUGGUUUUUUG [A46U C64U U81G]
Not met
